Data provenance: patent US20240124445A1

system: NCI-H82 cell; assay: Cell viability (Promega CellTiter-Glo) of NCI-H82 cell; assay type: cell-based; conditions: Homo sapiens; NCI-H82 cell, Table 1; read-out: IC50
pIC50: −log10 of the molar value.
Please enter true (1) where pIC50 is greater than or equal to 6, and false (0) where it is lower.

Input: Would you say "Nc1cccc(C(=O)C[n+]2ccc(NCc3ccccc3)cc2)c1" shows pIC50 at minimum 6?
Output: false (0)

Input: Identify whether the reported pIC50 of the following molecule is 6 or greater: "Cc1ccc(C(=O)Cn2cnc(/C=C/c3ccccc3)c2)cc1"
Output: false (0)

Input: Item O=C1c2cc(Cl)ccc2CCC1[n+]1ccc2c(ccn2Cc2ccccc2)c1 (stereo not drawn) with pIC50 of 6 or above?
Output: true (1)

Input: Check the entry O=C1c2cc(Cl)ccc2CCC1[n+]1ccc(NCc2ccccc2)cc1 (stereo not drawn) : does pIC50 equal or exceed 6?
Output: true (1)

Input: Hi, just wondering whether Cc1cn(Cc2ccccc2)c2cc[n+](C3CCc4ccc(C(F)(F)F)cc4C3=O)cc12 (stereo not drawn) shows pIC50 of 6 or higher.
Output: true (1)

Input: Evaluate COc1cccc2c1CCC([n+]1ccc(NCc3ccccc3)cc1)C2=O (stereo not drawn) : pIC50 at minimum 6?
Output: true (1)

Input: Is it the case that COc1ccc(C(=O)C[n+]2ccc(NCc3ccccc3)cc2)cc1 [AB24803A] has pIC50 reaching or exceeding 6?
Output: true (1)

Input: Could you tell me if the measured pIC50 of Cn1ccc2c[n+](C3CCc4ccc(C(F)(F)F)cc4C3=O)ccc21 (stereo not drawn) reaches 6 or more?
Output: false (0)

* * *

test system: SF-126; test: Cell viability (CellTiter-Glo) of SF-126; type: cell-based; conditions: Homo sapiens, 72 h; SF-126, 3 days of culture
I'd be grateful if you could share measured pIC50 for these entries.
As a rule, pIC50 stands for the negative log10 of the concentration, concentration in M.

Briefly, pIC50 measured for O=C(C[n+]1ccc(NCc2ccccc2)cc1)c1ccc(OC(F)(F)F)cc1 [AB24810A] : 4.88

// field: pIC50; key: O=C1c2ccc(Cl)cc2CCC1[n+]1ccc(NCc2ccccc2)cc1 (stereo not drawn) [AB24841A] ; value = 4.97

# compound O=C(C[n+]1ccc(NCc2ccccc2)cc1)c1ccc(Br)cc1 [AB24808A] ; its pIC50 = 5.53

Just so you know, measured pIC50 for Cc1ccc(C(=O)C[n+]2ccc(NCc3ccccc3)nc2)cc1 [AB24846] came out at 5.44

Lookup result for O=C(C[n+]1ccc2[nH]cc(Cc3ccccc3)c2c1)c1ccc(Cl)cc1 [AB24833A] ; measured pIC50: 4.67

The reported pIC50 of the compound Cc1ccc(C(=O)C[n+]2ccc(NCc3ccccc3)cc2)cc1 [AB24845A] was 5.64

Lab note: O=C(C[n+]1ccc(NCc2ccccc2)cc1)c1cccc(Cl)c1 [AB24805A] gave pIC50 of 5.50

Lookup result for O=C(C[n+]1ccc(NCc2ccccc2)cc1)c1ccc(C(F)(F)F)cc1 [AB24809A] ; measured pIC50: 4.43

* * *

tested on: MDA-MB-453; assay: Cell viability (CellTiter-Glo) of MDA-MB-453; type: cell-based; conditions: Homo sapiens; MDA-MB-453, breast cancer, Table 2; read-out: IC50
value.kind: pIC50
# log scale: pIC50 equals minus log10 of the concentration in mol/L

For "O=C(C[n+]1ccc(NCc2ccccc2)cc1)c1cccc([N+](=O)[O-])c1" the compound record lists pIC50 as 6.70

* * *

test system: MDA-MB-453; test: Cell viability (CellTiter-Glo) of MDA-MB-453; format: cell-based; settings: Homo sapiens, 72 h; MDA-MB-453, 3 days of culture, Table 5; read-out: IC50 MDA-MB-453
pIC50: −log10 of the molar value.
Assign fulfilled to entries whose pIC50 meets or exceeds 6; assign not fulfilled to the rest.

Input: # check: pIC50 of O=C(C[n+]1ccc(NCc2ccccc2)cc1)c1cccc(Cl)c1 [AB24805A] is greater than or equal to 6
Output: fulfilled

Input: Kindly determine if pIC50 recorded for O=C(C[n+]1ccc(NCc2ccccc2)cc1)c1ccc(Br)cc1 [AB24808A] is above or exactly 6.
Output: fulfilled

Input: I'd appreciate it if you could say whether O=C(C[n+]1ccc(NCc2ccccc2)cc1)c1ccc(C(F)(F)F)cc1 [AB24809A] has pIC50 at least equal to 6.
Output: not fulfilled

Input: Is it the case that O=C1c2ccc(Cl)cc2CCC1[n+]1ccc(NCc2ccccc2)cc1 (stereo not drawn) [AB24841A] has pIC50 reaching or exceeding 6?
Output: fulfilled

Input: Say whether O=C(C[n+]1ccc(NCc2ccccc2)cc1)c1ccc(OC(F)(F)F)cc1 [AB24810A] shows pIC50 of 6 or more.
Output: not fulfilled

Input: Quick check: does O=C(C[n+]1ccc2[nH]cc(Cc3ccccc3)c2c1)c1ccc(Cl)cc1 [AB24833A] have pIC50 greater than or equal to 6?
Output: not fulfilled

Input: Does pIC50 meet or surpass 6 for O=C(C[n+]1ccc(NCc2ccccc2)cc1)c1cccc([N+](=O)[O-])c1 [AB24852] ?
Output: fulfilled

Input: Dear colleague, could you confirm whether Cc1ccc(C(=O)C[n+]2ccc(NCc3ccccc3)cc2)cc1 [AB24845A] has pIC50 at or above 6?
Output: fulfilled

* * *

Tested on: Daoy cell
Experiment: Cell viability (CellTiter-Glo) of Daoy cell with or without CsA
Format: cell-based
Settings: Homo sapiens, read-out: IC50 Daoy cell without CsA
Description: Cell viability was detected using the Promega CellTiter-Glo kit, the kit reflected cell viability by directly measuring intracellular ATP content. Daoy cell was cultured in 10% fetal bovine serum-containing DMEM medium (+P/S), and NCI-H82 cell was cultured in 10% fetal bovine serum-containing RPMI1640 medium (+P/S).
value.kind: pIC50
When answering, recall that pIC50 equals minus log10 of the concentration in mol/L, and write that number alone.

// O=C1c2cc(C(F)(F)F)ccc2CCC1[n+]1ccc(NCc2ccccc2)cc1 (stereo not shown) : pIC50 value = 5.99

Sure, the documented pIC50 for O=C1c2cc(Cl)ccc2CCC1[n+]1ccc2c(c1)CCC(c1ccccc1)N2 (stereo not shown) is 5.26

According to the records, this compound O=C1c2cc(OC(F)(F)F)ccc2CCC1[n+]1ccc(NCc2ccccc2)cc1 (stereo not shown) displays pIC50 of 5.98

The recorded pIC50 for O=C1c2cc(OC(F)(F)F)ccc2CCC1[n+]1ccc2c(ccn2Cc2ccccc2)c1 (stereo not shown) is 5.71

Reported pIC50 of O=C1c2cc(C(F)(F)F)ccc2CCC1[n+]1ccc2c(c1)CCC(c1ccccc1)N2 (stereo not shown) : 5.32

For record O=C1c2cc(C(F)(F)F)ccc2CCC1[n+]1ccc2c(ccn2Cc2ccccc2)c1 (stereo not shown) the listed pIC50 is 5.84

* * *

Exercise: state measured pIC50 for each of the molecules provided.
tested on: NCI-H82 cell; test: Cell viability (Promega CellTiter-Glo) of NCI-H82 cell; format: cell-based; details: Homo sapiens; NCI-H82 cell, Table 1; read-out: IC50
Scale for pIC50: -log10 of concentration given in mol/L; no unit attached.

Record CC(c1ccccc1)n1ccc2c[n+](C3CCc4ccc(C(F)(F)F)cc4C3=O)ccc21 (stereo not drawn) , field pIC50: 6.55

Cc1ccc2c(c1)C(=O)C([n+]1ccc(NCc3ccccc3)cc1)C2 (stereo not drawn) has a reported pIC50 of 5.60

In plain terms, "O=C(C[n+]1ccc2c(ccn2Cc2ccccc2)c1)c1ccc(C(F)(F)F)cc1" has a documented pIC50 of 5.70

Entry under test: "O=C(C[n+]1ccc(NCc2ccccc2)cc1)c1cccc([N+](=O)[O-])c1" . Its pIC50 was 5.84

Data point: O=C1c2ccc(C(F)(F)F)cc2CCC1[n+]1ccc2c(c1)CCC(c1ccccc1)N2 (stereo not drawn) ; pIC50 = 6.14

Lab note: Cc1ccc2c(c1)CCC([n+]1ccc3c(ccn3C(C)c3ccccc3)c1)C2=O (stereo not drawn) gave pIC50 of 6.64

The reported value for Cc1ccc2c(c1)CCC([n+]1ccc(NCc3ccccc3)cc1)C2=O (stereo not drawn) in terms of pIC50 is 6.92

Field pIC50 (entry O=C(C[n+]1ccc(NCc2ccccc2)cc1)c1cccc(Cl)c1 [AB24805A] ) reads 6.43

Briefly, pIC50 measured for "Cc1ccc(C(=O)C[n+]2ccc(N3CCc4ccccc4C3)cc2)cc1" : 5.97

* * *

test system: NCI-H1048; assay: Cell viability (CellTiter-Glo) of NCI-H1048; type: cell-based; details: Homo sapiens; NCI-H1048, lung cancer
value.kind: pIC50
pIC50 field: float, defined as -log10 of concentration (mol/L).

The reported pIC50 of the molecule "O=C(C[n+]1ccc(NCc2ccccc2)cc1)c1cccc([N+](=O)[O-])c1" was 5.96
